system: Acinetobacter baumannii strains; assay: Antibiotic susceptibility test (CLSI disk diffusion test method, read per CLSI 2016); type: cell-based; conditions: host strain YMC14/01/U318
MEASURE NAME: antibiotic susceptibility class

C[C@@H](O)[C@H]1C(=O)N2C(C(=O)O)=C(S[C@@H]3CN[C@H](C(=O)N(C)C)C3)[C@H](C)[C@H]12 [Meropenem, meropenem] = R
CN(C)c1cc(NC(=O)CNC(C)(C)C)c(O)c2c1C[C@H]1C[C@H]3[C@H](N(C)C)C(O)=C(C(N)=O)C(=O)[C@@]3(O)C(O)=C1C2=O [Tigecycline, tigecycline] = S
CN(C)c1ccc(O)c2c1C[C@H]1C[C@H]3[C@H](N(C)C)C(O)=C(C(N)=O)C(=O)[C@@]3(O)C(O)=C1C2=O [Minocycline, minocycline] = I
C[C@H]1COc2c(N3CCN(C)CC3)c(F)cc3c(=O)c(C(=O)O)cn1c23 [Levofloxacin, levofloxacin] = R
CO/N=C(\C(=O)N[C@@H]1C(=O)N2C(C(=O)O)=C(COC(C)=O)CS[C@H]12)c1csc(N)n1 [Cefotaxime, cefotaxime] = R

Consider now this further compound.
Item under review: CC(C)(O/N=C(\C(=O)N[C@@H]1C(=O)N2C(C(=O)[O-])=C(C[n+]3ccccc3)CS[C@H]12)c1csc(N)n1)C(=O)O [Ceftazidime, ceftazidime] . Reported antibiotic susceptibility class? R

---

System: Acinetobacter baumannii strains
Assay: Antibiotic susceptibility test (CLSI disk diffusion test method, read per CLSI 2016)
Format: cell-based
Details: host strain YMC17/03/B5000
Method: Strain identification was performed using a kit such as AT 32 GN system (bioMérieux, Marcy l'Etoile, France). […] In Table 2 below, S, I, and R are the results obtained by evaluating susceptibility to the antibacterial agents, in which ‘S’ means susceptible, ‘I’ means intermediate, and ‘R’ means resistant. Strain identification was performed using a kit such as ATB 32 GN system (bioMédrieux, Marcy l'Etoile, France). […]
MEASURE NAME: susceptibility category (S/I/R)

CN(C)c1ccc(O)c2c1C[C@H]1C[C@H]3[C@H](N(C)C)C(O)=C(C(N)=O)C(=O)[C@@]3(O)C(O)=C1C2=O [Minocycline, minocycline] = I
C[C@@H](O)[C@H]1C(=O)N2C(C(=O)O)=C(SCCN=CN)C[C@H]12 [Imipenem, imipenem] = R
NCC[C@H](O)C(=O)N[C@@H]1C[C@H](N)[C@@H](O[C@H]2O[C@H](CN)[C@@H](O)[C@H](O)[C@H]2O)[C@H](O)[C@H]1O[C@H]1O[C@H](CO)[C@@H](O)[C@H](N)[C@H]1O [Amikacin, amikacin] = R
CC(C)(O/N=C(\C(=O)N[C@@H]1C(=O)N2C(C(=O)[O-])=C(C[n+]3ccccc3)CS[C@H]12)c1csc(N)n1)C(=O)O [Ceftazidime, ceftazidime] = R
CCN1CCN(C(=O)N[C@@H](C(=O)N[C@@H]2C(=O)N3[C@@H]2SC(C)(C)[C@@H]3C(=O)O)c2ccccc2)C(=O)C1=O [Piperacillin, piperacillin] = R

# next molecule below
// susceptibility category (S/I/R) lookup, key: C[C@H]1COc2c(N3CCN(C)CC3)c(F)cc3c(=O)c(C(=O)O)cn1c23 [Levofloxacin, levofloxacin] R

---

tested on: Acinetobacter baumannii strains; experiment: Antibiotic susceptibility test (CLSI disk diffusion test method, read per CLSI 2016); format: cell-based; settings: host strain YMC17/03/B5000
MEASURE NAME: susceptibility category (S/I/R)

C[C@@H](O)[C@H]1C(=O)N2C(C(=O)O)=C(S[C@@H]3CN[C@H](C(=O)N(C)C)C3)[C@H](C)[C@H]12 = R
CO/N=C(\C(=O)N[C@@H]1C(=O)N2C(C(=O)O)=C(COC(C)=O)CS[C@H]12)c1csc(N)n1 = R
CN(C)c1cc(NC(=O)CNC(C)(C)C)c(O)c2c1C[C@H]1C[C@H]3[C@H](N(C)C)C(O)=C(C(N)=O)C(=O)[C@@]3(O)C(O)=C1C2=O = S
